test-name: CREB reporter modulators without forskolin, primary screen, cell-based, PC12, CRE-LacZ reporter, unstimulated (AID 1145)
conditions-used: no forskolin, luminescence, 4.5 h, higher = more signal, called active from +8 up or from −8 down
measured-metric: z-score
Write the value as a bare number.

stdin: Which value of z-score has been reported for CC(=O)O[C@H]1C2=CO[C@H](C)[C@H]3[C@H]4C5=C([C@H](O)[C@H]6O[C@H]6C5=O)[C@H](OC4C)[C@@]23C(=O)[C@@H]2O[C@@H]21 (stereo partly specified) in the records?
stdout: 0.831

stdin: Okay, and CC(C)CON=C1C[C@@H](O)[C@@H](O)[C@@H]2[C@@H]3C(=O)N(C4CCCCC4)C(=O)[C@@H]3CC[C@@H]12 ?
stdout: 0.156

stdin: Again, but for CC(C)CON=C1C[C@@H](O)[C@@H](O)[C@@H]2[C@@H]3C(=O)N(c4ccc(F)cc4F)C(=O)[C@@H]3CC[C@H]12
stdout: -1.29

stdin: Try this compound too: COCOc1ccc(Br)cc1C(=O)[C@@H]1O[C@H]1c1cccc(OC)c1
stdout: 1.2

stdin: Same for O=C1CCCC=C1C(O)CCCCBr (stereo unspecified)
stdout: 1.37

stdin: Same lookup for CO[C@@H]1C=CCC(=O)N[C@@H](C)C(=O)OC[C@@H](OC)[C@H](C)CCCC(=O)OC[C@H]1C , please.
stdout: -0.808

stdin: Further, for CCOC(=O)[C@H](CC(C)C)NC(=O)CCC1CC(OC(=O)NCCc2ccc(F)cc2)CC2(CCCC(COC(=O)NCCc3ccc(Cl)cc3)O2)O1 (stereo partly specified) ?
stdout: 1.75

stdin: How about CC(C)(C)N1C(=O)[C@H]2[C@H]3[C@H](O)[C@H](O)CC(=O)[C@@H]3CC[C@H]2C1=O ?
stdout: -0.93

stdin: Same lookup for CC(C)C[C@H](NC(=O)CCC1CC(OC(=O)NCc2cccc3ccccc23)CC2(CCCC(COC(=O)NCc3ccccc3)O2)O1)C(=O)NCC(c1ccccc1)c1ccccc1 (stereo partly specified) , please.
stdout: -0.258

stdin: Field entry: CCOC(=O)[C@H](Cc1ccccc1)NC(=O)CCC1CC(OC(=O)NCCc2ccc(F)cc2)CC2(CCCC(COC(=O)NCCOC)O2)O1 (stereo partly specified)
stdout: 0.473

stdin: Proceed to COc1ccc(COC(=O)NN=C2C[C@@H](O)[C@@H](O)[C@@H]3[C@@H]4C(=O)N(c5cccc(Oc6ccccc6)c5)C(=O)[C@@H]4CC[C@@H]23)cc1
stdout: 2.15

stdin: Entry CO[C@H]1COC(=O)CC=C[C@H](C)[C@@H](OC)COC(=O)[C@@H](C)NC(=O)CC=C[C@@H]1C please
stdout: -0.0824

stdin: Same thing, different compound: Cc1ccc(S(=O)(=O)n2c3ccccc3c3nnc(C(=O)c4ccccc4)nc32)cc1
stdout: 1.38

stdin: Now the compound CCOC(=O)[C@H](CC(C)C)NC(=O)CCC1CC(OC(=O)NCCc2ccc(F)cc2)CC2(CCCC(COC(=O)NCCc3ccccc3OC)O2)O1 (stereo partly specified)
stdout: 1.64

stdin: Can you check CC(C)CCN1CCc2nc(COc3ccccc3)c3c(c2C1)CO[C@@H](C)C3 next?
stdout: 3.36

stdin: Same thing, different compound: COC(=O)CC=C[C@@H](C)[C@@H](C=NOC[C@@H](O)[C@H]1O[C@@H]2OC(C)(C)O[C@@H]2[C@H]1O)NS(=O)(=O)c1ccc(C)cc1
stdout: -0.245

* * *

test-name: HepG2 cell viability effects, profiling panel, calcein-AM fluorescence, 48 h, basal (AID 1164); note: test concentration not given here
conditions-used: higher = more signal
I'd appreciate it if you could supply z-score values for the items below.
Number only, no unit.

stdin: Dear colleague, I am looking for the recorded z-score of the following compound: C[C@H]1CC[C@H]2C(=O)O[C@H](COc3ccc(C(C)(C)C)cc3)CN2[C@@H]1c1ccc(Br)cc1
stdout: 0.573

stdin: Same question for CCCCC#C[C@@H]1C=C[C@H](Oc2ccc(C(=O)OC)cc2)[C@@H](COC(=O)OCC)O1 please.
stdout: -3.26

stdin: Also check Cn1c(=O)n2n(c1=O)[C@H]1[C@H](O)[C@@H]3O[C@@H]3C(=NOCc3ccccc3)[C@H]1CC2
stdout: 0.316

stdin: Then this compound: O=C1C[C@@H](O)[C@@H](O)[C@@H]2[C@@H]3C(=O)N(c4cccc(Oc5ccccc5)c4)C(=O)[C@@H]3CC[C@H]12
stdout: 0.0658

* * *

target-entity: Luciferin 4-monooxygenase (Photinus pyralis)
test-name: firefly luciferase enzyme inhibitors, primary screen, biochemical, luminescence, purified enzyme, 2006 set (AID 1141);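 note: cell-free assay with purified firefly luciferase at 100 ng per well in PBS; test concentration not given here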
conditions-used: SteadyGlo luminescence, 30 min, higher = more signal, called active from +8 up or from −8 down
Activity calls are given as the source filed them.
measured-metric: z-score

stdin: Query z-score on Luciferin 4-monooxygenase (Photinus pyralis) for CC1O[C@H]2C3=C(C(=O)[C@@H]4O[C@@H]4[C@H]3O)[C@@H]1C1[C@@H](C)OC=C3[C@H](O)C4O[C@@H]4C(=NOCc4ccccc4)[C@]312 (stereo not given in full)
stdout: -0.399 (inactive)

stdin: Let us now turn to C#CCCCON=C1C[C@@H](O)[C@@H](O)[C@@H]2[C@@H]3C(=O)N(Cc4ccccc4)C(=O)[C@@H]3CC[C@@H]12
stdout: 0.807 (inactive)

stdin: Okay, and C=C(C)C(=O)OCC1CN2[C@@H](CC[C@@H](C)[C@@H]2c2ccc(Br)cc2)C(=O)O1 (stereo not given in full) ?
stdout: -0.0906 (inactive)

stdin: Proceed to CCN1C(=O)[C@H]2[C@H]3[C@H](O)[C@H](O)CC(=O)[C@H]3CC[C@H]2C1=O
stdout: -0.371 (inactive)

stdin: Okay, and CCOC(=O)NN=C1C[C@@H](O)[C@@H](O)[C@@H]2[C@@H]3C(=O)N(c4cccc(Oc5ccccc5)c4)C(=O)[C@@H]3CC[C@@H]12 ?
stdout: 0.607 (inactive)

stdin: Same again, this time with CO[C@H]1COC(=O)[C@H](C)NC(=O)[C@@H](C)COC(=O)[C@H]2CCCN2C(=O)CC=C[C@H]1C
stdout: 0.574 (inactive)

stdin: What do we get for COC(=O)[C@H](C)NC(=O)CCC1CC(OC(=O)NCc2ccc3c(c2)OCO3)CC2(CCCC(COC(=O)NCCc3ccccc3OC)O2)O1 (stereo not given in full) ?
stdout: 0.559 (inactive)

stdin: What do you get for CCOC(=O)[C@H](CC(C)C)NC(=O)CCC1CC(OC(=O)NCc2ccc3c(c2)OCO3)CC2(CCCC(COC(=O)NCc3cccc(C(F)(F)F)c3)O2)O1 (stereo not given in full) ?
stdout: 0.679 (inactive)

stdin: Consider next the molecule COC(=O)NCC=Cc1nc(CCCO)co1 in the same way.
stdout: 0.604 (inactive)

stdin: Quick one: COC(=O)[C@H]1O[C@@H](c2c(OC)c(OC)c(C)c(OC)c2OC)[C@H](C)[C@@H](O)[C@H]1C
stdout: -0.246 (inactive)

stdin: CCOC(=O)NN=C1C[C@@H](O)[C@@H](O)[C@@H]2[C@@H]3C(=O)N(Cc4ccccc4)C(=O)[C@@H]3CC[C@H]12 ?
stdout: 0.746 (inactive)

stdin: Next molecule up: Cn1c(=O)n2n(c1=O)[C@H]1[C@H](O)[C@@H]3O[C@@H]3C(=NOCc3ccccc3)[C@H]1CC2
stdout: -0.101 (inactive)

stdin: Thanks! And CC(C)=CCCC(C)=CCON=C1C[C@@H](O)[C@@H](O)[C@@H]2[C@@H]3C(=O)N(C(C)(C)C)C(=O)[C@@H]3CC[C@H]12 ?
stdout: 0.0533 (inactive)

stdin: What about C=Cc1ccc([C@H]2N[C@H](C(=O)O)CC[C@@H]2C)cc1 ?
stdout: -0.33 (inactive)

stdin: Now give it for COC(=O)CC=C[C@@H](C)[C@@H](C=NOCC[C@@H]1C=C[C@H](OC(C)=O)[C@@H](COC(C)=O)O1)NS(=O)(=O)c1ccc(C)cc1 too.
stdout: 1.2 (inactive)

* * *

Test system: Sonic hedgehog protein (Shh)
test-name: small-molecule binders of Shh protein, primary screen, biochemical, small-molecule microarray, 635/667 nm fluorescence (AID 1151);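 note: Shh protein binding to compounds spotted on small-molecule microarray slides; score combines spot fluorescence intensity with signal-to-noise across triplicate slides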
conditions-used: small-molecule microarray binding, 635 nm fluorescence; higher = more signal
measured-metric: composite z-score

stdin: Quick one: composite z-score of C=C(C)C(=O)OCC1CN2[C@@H](CC[C@@H](C)[C@@H]2c2ccc(Br)cc2)C(=O)O1 (some centres undefined) ?
stdout: 0.486

stdin: And for CO[C@@H]1COC(=O)[C@H](CCSC)NC(=O)CC=C[C@@H](C)COC(=O)[C@H](C)NC(=O)CC=C[C@H]1C ?
stdout: 1.46

stdin: Would you mind doing COc1ccc(COC(=O)NN=C2C[C@@H](O)[C@@H](O)[C@@H]3[C@@H]4C(=O)N(c5cccc(Oc6ccccc6)c5)C(=O)[C@@H]4CC[C@@H]23)cc1 as well?
stdout: -1.38

stdin: Record: CCOC(=O)[C@H](CC(C)C)NC(=O)CCC1CC(OC(=O)NCc2cccc3ccccc23)CC2(CCCC(COC(=O)NCCOc3ccccc3)O2)O1 (some centres undefined)
stdout: 0.805
